From: patent US20220112288A1

# Measured Target: T1, human CD4 on cells (SKW3 cells; human PBMCs) (human, UniProt P01730 26-458)
# T1 construct: whole, on cells; SKW3 CD4 knockout cells served as the negative cell line in the primary screen; also called hCD4; huCD4
# Experiment Description: FACS primary screen, hybridoma supernatant, SKW3 vs SKW3 CD4 KO cells;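 also: flow cytometry on mixed SKW3 and dye-labeled SKW3 CD4 knockout cells after 30 min at 4 °C with supernatant, ratio of binding signal on parental versus knockout cells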
Item-by-item account of SKW3 WT vs KO ratio, anti-hKappa-FITC

# Binder, SKW3 WT vs KO ratio, anti-hKappa-FITC
data = [
    ("75110_08F20A (antibody, V domains shown, Tested as non-clonal AlivaMab Mouse Kappa hybridoma supernatant (detected with anti-mouse Fc gamma and anti-human kappa)) VH: QVQLQESGPGLVKPSETLSLTCSVSGGSISTYYWSWIRQPAGKGLEWIGRICTTENTNYNPSLKSRVTMSIDSSKNQFSLKLSSVTAADTAVYYCARDLERLNYYGMDVWGQGATVTVSS VL: DIQMTQSPSSLSASVGDRVTITCQASQDISKYLNWYQQKPGIAPKLLIYDASNLETGVPSRFSGSGSGTDFTFTISSLQPEDFATYYCQQYDSLPITFGQGTRLEIK", 1.7),
    ("75110_10O16A (antibody, V domains shown, Tested as non-clonal AlivaMab Mouse Kappa hybridoma supernatant (detected with anti-mouse Fc gamma and anti-human kappa); also called 75110_10016A) VH: EVQLVESGGGLVQPGGSLRLSCAASGFTFSNSDMHWVRQATGKGLEWVSTIGTAGDTYYPGSVKGRFTISRENAKNSLYLQMNSLRAGDTAVYYCARGGLYYYGMDVWGQGTTVTVSS VL: ENVLTQSPGTLSLSPGERATLSCRASQSVSSSYLAWYQQKPGQAPRLLIYGASSRATGIPDRFSGSGSGTDFTLTISRLEPEDFAVYYCHQFGSSPFTFGPGTKVDIK", 1.3),
]
